Please provide measured pKa for the entries that follow.
measurement-description: Dissociation constant, pKa of the compound
Type: physicochemical
Numbers only.

[[record]]
compound_structure = "Nc1ncnc2c1ncn2[C@@H]1O[C@H](COP(=O)(O)CC(=O)c2ccccc2O)[C@@H](O)[C@H]1O"
test_readout = "pKa"
numeric_value = 2

[[record]]
compound_structure = "Nc1ncnc2c1ncn2[C@@H]1O[C@H](COS(=O)(=O)NC(=O)c2ccccc2)[C@@H](O)[C@H]1O"
test_readout = "pKa"
numeric_value = 2.8


For the next question, use this molecule.
Fill blank: measured pKa of the molecule Nc1ncnc2c1ncn2[C@@H]1O[C@H](COS(=O)(=O)NCc2ccccc2O)[C@@H](O)[C@H]1O is ____.
8.5

----------
Tested on: Mycobacterium tuberculosis
measurement-description: Inhibitory activity against Mycobacterium tuberculosis H37Rv
Format: functional
test-readout: MIC50

Example compounds with recorded MIC50:
[[record]]
compound_structure = "Nc1ccccc1C(=O)NS(=O)(=O)OC[C@H]1O[C@@H](n2cnc3c(N)ncnc32)[C@H](O)[C@@H]1O"
result = "30.9 µM"

[[record]]
compound_structure = "Nc1ncnc2c1ncn2[C@@H]1O[C@H](COS(=O)(=O)NC(=O)c2ccccc2)[C@@H](O)[C@H]1O"
result = "4.5 µM"

[[record]]
compound_structure = "Nc1ncnc2c1ncn2[C@@H]1O[C@H](Cn2cc(C(=O)c3ccccc3O)nn2)[C@@H](O)[C@H]1O"
result = "> 100 µM"

[[record]]
compound_structure = "Nc1ncnc2c1ncn2[C@@H]1O[C@H](COS(=O)(=O)NC(=O)c2ccccc2O)[C@@H](O)[C@H]1O"
result = "0.091 µM"

[[record]]
compound_structure = "Nc1ncnc2c1ncn2[C@@H]1O[C@H](CNS(=O)(=O)NC(=O)c2ccccc2O)[C@@H](O)[C@H]1O"
result = "0.077 µM"


Record MIC50 per entry; entries follow.
1. Nc1ncnc2c1ncn2[C@@H]1O[C@H](COP(=O)(O)CC(=O)c2ccccc2O)[C@@H](O)[C@H]1O
2. Nc1ncnc2c1ncn2[C@@H]1O[C@H](COS(=O)(=O)NCc2ccccc2O)[C@@H](O)[C@H]1O

["> 100 µM", "> 100 µM"]

----------
System: Mycobacterium tuberculosis
measurement-description: Inhibitory activity against Mycobacterium tuberculosis H37Rv
Assay type: functional
test-readout: MIC99 (µM)
One number for each entry, in µM.

Example compounds with recorded MIC99:
[[record]]
compound_structure = "Nc1ncnc2c1ncn2[C@@H]1O[C@H](CNS(=O)(=O)NC(=O)c2ccccc2O)[C@@H](O)[C@H]1O"
test_readout = "MIC99"
numeric_value = 0.19

[[record]]
compound_structure = "NNC(=O)c1ccncc1"
test_readout = "MIC99"
numeric_value = 0.18

[[record]]
compound_structure = "Nc1ncnc2c1ncn2[C@@H]1O[C@H](COS(=O)(=O)NC(=O)c2ccccc2O)[C@@H](O)[C@H]1O"
test_readout = "MIC99"
numeric_value = 0.29


Fill blank: measured MIC99 of the compound Nc1ncnc2c1ncn2[C@@H]1O[C@H](COS(=O)(=O)NC(=O)c2ccccc2)[C@@H](O)[C@H]1O is ____.
12.5
